Target: T1, recombinant human IL-23 (p19/p40 heterodimer) (human, UniProt Q9NPF7 20-189; P29460 23-328)
T1 sequence (looked up) 1: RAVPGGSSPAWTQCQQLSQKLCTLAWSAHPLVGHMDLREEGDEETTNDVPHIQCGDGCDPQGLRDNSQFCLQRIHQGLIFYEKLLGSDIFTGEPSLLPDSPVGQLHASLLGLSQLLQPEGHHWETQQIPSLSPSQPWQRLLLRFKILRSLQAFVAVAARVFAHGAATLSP
T1 sequence (looked up) 2: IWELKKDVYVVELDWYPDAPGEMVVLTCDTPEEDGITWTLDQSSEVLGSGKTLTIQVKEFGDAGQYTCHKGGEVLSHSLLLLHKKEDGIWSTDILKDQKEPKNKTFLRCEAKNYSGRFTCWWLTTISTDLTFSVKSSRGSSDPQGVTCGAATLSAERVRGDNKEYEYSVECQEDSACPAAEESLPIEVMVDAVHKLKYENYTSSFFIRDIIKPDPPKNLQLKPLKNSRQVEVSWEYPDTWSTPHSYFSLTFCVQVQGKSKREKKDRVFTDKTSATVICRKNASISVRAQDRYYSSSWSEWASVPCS
Assay: cell-based or functional assay
EXPERIMENTAL_ENDPOINT: Top % of inhibition, STAT3 activation in DB reporter cells (%)
Numeric answer only, unit % assumed.

Query block: Which Top % of inhibition, STAT3 activation in DB reporter cells is reported for this binder? Hu-6 18006B (purified from hybridoma) (antibody, V domains shown) VH: QVQLVQSGAEVKKPGASVKVSCKTSGYTFTYYGISWVRQAPGQGLEWMGLISAYNGNTNYGQKVQGRVTMTTDTSTSTAYMELRSLRSDDTAVYYCVTENINWRDAFDIWGQGTMVTVSS VL: EIVLTQSPDFQSVTPKEKVTITCRASQTIGSSLHWYQQKPDQSPKLLIKYASQSISGVPSRFSGSGSGTDFTLTINSLEAEDAAAYYCHQSSSLPYTFGQGTKLEIK
Result block: 99

Query block: Any idea what its Top % of inhibition, STAT3 activation in DB reporter cells is? The binder is Hu-2 18006B (antibody, V domains shown, Purified from hybridoma (Trianni mice); also called H-2 1800B (mIgG1)) VH: QVQLVQSGAEVKKPGASVKVSCKASGYTFTTYGISWVRQAPGQGLEWMGWISAYNGNTKYAQKLQGRVTMTTDTSTSTAYMELRSLRSDDTAVYYCAREWRAFYYYGLDVWGQGTTVTVSS VL: DIVMTQTPLSSPVTLGQPASISCRSSQSLEHSDGNTYLSWLQQRPNQPPRLLIYKVSNRFSGVPDRFSGSGAGTDFTLKISRVEAEDVGVYYCTQATQFPLTFGGGTKVEIK
Result block: 97
